Test system: primary rat microglia
experimental-conditions: rat
Can you tell me LPS % cell toxicity for the items I'm about to list?
Write the quantity with the unit trailing the number.

// worked examples, LPS % cell toxicity included
{"compound": "CN1CCC(=C2c3ccccc3C=Cc3ccccc32)CC1", "measured-parameter": "LPS % cell toxicity", "data-value": "1%"}
{"compound": "CCCCOc1ccc(OCCCN2CCOCC2)cc1", "measured-parameter": "LPS % cell toxicity", "data-value": "0%"}

Each compound below has a recorded value; state its LPS % cell toxicity.
1. Cl[C@H]1[C@H](Cl)[C@@H](Cl)[C@@H](Cl)[C@H](Cl)[C@H]1Cl
2. CCCCNc1ccc(C(=O)OCCOCCOCCOCCOCCOCCOCCOCCOCCOC)cc1 [Benzonatate]
3. O=C1CC[C@@H](C(=O)O)N1

["0%", "0%", "0%"]

Each compound below has a recorded value; state its LPS % cell toxicity.
1. OC(CCN1CCCCC1)(c1ccccc1)C1CC2C=CC1C2 (stereo not shown)
2. CC[C@H]1OC(=O)[C@H](C)[C@@H](O[C@H]2C[C@@](C)(OC)[C@@H](O)[C@H](C)O2)[C@H](C)[C@@H](O[C@@H]2O[C@H](C)C[C@H](N(C)C)[C@H]2O)[C@](C)(O)C[C@@H](C)/C(=N\OCOCCOC)[C@H](C)[C@@H](O)[C@]1(C)O
3. CC(C)Nc1cccnc1N1CCN(C(=O)c2cc3cc(NS(C)(=O)=O)ccc3[nH]2)CC1

1%
1%
1%

Each compound below has a recorded value; state its LPS % cell toxicity.
1. CCCCC(=O)O[C@H]1CC[C@H]2[C@@H]3CCc4cc(O)ccc4[C@H]3CC[C@]12C [Estradiol Valerate]
2. CN(C)C(=O)C(CCN1CCC(O)(c2ccc(Cl)cc2)CC1)(c1ccccc1)c1ccccc1 [Loperamide]

1%
2%

Data provenance: patent US20210330611A1
